# Tested on: U2OS
# procedure summary: cell viability relative to DMSO; higher = less toxic
# experimental context: 72 h; 1 nM
Each record here notes measured cell viability.
Write the value in % as a bare number.

Here is how some compounds turned out for cell viability.
compound	cell viability (%)
CC[C@]1(O)C[C@H]2CN(CCc3c([nH]c4ccccc34)[C@@](C(=O)OC)(c3cc4c(cc3OC)N(C=O)[C@H]3[C@@](O)(C(=O)OC)[C@H](OC(C)=O)[C@]5(CC)C=CCN6CC[C@]43[C@@H]65)C2)C1 [Vincristine (sulfate)]	97.1
O=C(O)CCCCCCCC(=O)O [azelaic-acid]	101
COc1ccc(Cc2cnc(N)nc2N)cc1OC [diaveridine]	105
O=C(Nc1ncc(SCCN2CCCC2)s1)[C@]1(c2ccc(S(=O)(=O)C3CC3)cc2)C[C@H]1C1CCCCC1	99.4

Q) Give me measured cell viability, please, for this compound: CCC(=O)O[C@]1(C(=O)COC(C)=O)CC[C@H]2[C@@H]3C[C@H](C)C4=CC(=O)C=C[C@]4(C)[C@H]3[C@@H](O)C[C@@]21C [methylprednisolone-aceponate]
A) 101

Q) Give me measured cell viability, please, for this compound: O=C(/C=C/c1c(C(=O)O)[nH]c2cc(Cl)cc(Cl)c12)Nc1ccccc1 [gavestinel]
A) 101

Q) Give me measured cell viability, please, for this compound: CNC(=O)c1ccc2c(c1)S(=O)(=O)c1ccccc1C2=O [BW-616U]
A) 99.1

Q) Give me measured cell viability, please, for this compound: CC[N+](CC)(CC)CCC(O)(c1ccccc1)C1CCCCC1 (configuration not stated) [tridihexethyl]
A) 101
